assay.system: PfCSP full length (Plasmodium falciparum (isolate NF54), UniProt P19597)
Sequence (P19597 20-375): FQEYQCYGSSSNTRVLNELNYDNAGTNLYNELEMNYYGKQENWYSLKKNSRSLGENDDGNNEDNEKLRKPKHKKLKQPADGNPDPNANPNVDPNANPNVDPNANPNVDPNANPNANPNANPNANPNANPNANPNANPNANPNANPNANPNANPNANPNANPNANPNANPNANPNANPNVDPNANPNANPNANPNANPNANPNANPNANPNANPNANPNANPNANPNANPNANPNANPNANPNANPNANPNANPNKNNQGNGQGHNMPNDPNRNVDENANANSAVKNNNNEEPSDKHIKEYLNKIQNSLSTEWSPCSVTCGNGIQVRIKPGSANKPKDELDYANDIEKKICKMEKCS
method.description: ELISA AUC
Reported binding score values for the following binders.
Returns: the value as a bare number; no unit string appended.

Recorded binding score, per entry:
binder	numeric.readout
CL-513069 (antibody, V domains shown, peptides N-terminally acetylated and C-terminally amidated) VH: QVQLVESGGGVVQPGKSLRLSCEASGFTFSNYGMHWVRQAPGKGLDWVAIIWHDGGNKFYADSVRGRFTISRDNSKNTLFLQMNSLRAEDSAVYYCARVFDFRDSCYTMDVWGQGTTVTVSS VL: DIQMTQSPSTLSASVGDRVTITCRASQSISSWLAWYQQKPGKAPKLLIYKASSLESGVPSRFSGSGSGTEFSLTISSLQPDDFATYYCQQYTRYWTFGQGTRVEIQ	2.2
CL-449869 (antibody, V domains shown, peptides N-terminally acetylated and C-terminally amidated) VH: QVQLVESGGGAVQPGRSLRLSCAASGFTFSYNGMHWVRQAPGKGLEWVAIIWYDGSNKFYADSVKGRFTISRDNSKDTLYLEMNSLRAEDTAIYYCARAWNYDDKKYSMDVWGQGTTVTVSS VL: DIQMTQSPSTLSASVGDRVTITCRASQSISSWLAWYQQKPGKAPKLLIYKASSLESGVPSRFSGSGSGTEFTLTISSLQPDDFATYYCQQYNYFWTFGQGTKVEIR	2.2
Ky15.11 (antibody, V domains shown, peptides N-terminally acetylated and C-terminally amidated) VH: QVQLVESGGGVVQPGRSLRLSCEASGFTFSNFGMHWVRQTPVKGLEWVAIIWFDGSYKYYTDSVKGRFTISRDNSKNTLYLQMNSLRAEDTAVYYCARARKGQRSDYYGSETSYTFDNWGQGTLVTVSS VL: DIQMTQSPSTLSASVGDRVTITCRASQSINGWLAWYQQKPGKAPKFLIYKASILESGIPSRFSGSGSGTEFTLTISSLQPDDFATYYCQQYSSYWTFGQGTKVEIK	2.53

Find the recorded binding score belonging to CL-513462 (antibody, V domains shown, peptides N-terminally acetylated and C-terminally amidated) VH: QVQLVESGGGVVQPGRSLRVSCAASGFTFSNYGMYWVRQAPGKGLEWVAVIWHDGTNKFYEDSVKGRFTISRDNSKNTLYLQMNSLRAEDTAVYYCARAGYFQGSGSFLDYWGQGTLVTVSS VL: DIQMTQSPSTLSASVGDRVTITCRASQSISSWLAWYQQKPGKAPKLLIYKASSLESGVPSRFSGSGSGTEFTLTISSLQPDDFATYFCQQYSSYWTFGQGTKVEIK and report it.
2.47

Quick one: CL-441734 (antibody, V domains shown, peptides N-terminally acetylated and C-terminally amidated) VH: QVQLVESGGGVVQPGRSLRLSCAASGFTFSSHGMHWVRQAPVKGLEWVAVIWYDGSNKYYADSVKGRFTISRDNSKNTLYLQMNSLRAEDTAVYYCARVEYSRSSGDYYYYGLDVWGQGTTVTVSS VL: EIVMTQSPATLSVSPGERATLSCRASQSVSSNLAWYQQKPGQAPRLLIYGASTRATGIPARFSGSGSGTEFTLTISSLQSEDFAVYYCQQYDNWWTFGQGTKVEIK
2.3

Quick one: CL-462788 (antibody, V domains shown, peptides N-terminally acetylated and C-terminally amidated) VH: QVQLVESGGGVVQPGRSLRLSCAASGFTFRNYGMHWVRQAPGKGLEWVAIIWYDGSYKFYADSVKGRFTISRDNSKNTLYLQMNSLRAEDTAMYYCARDDALELRSFDIWGQGTMVTVSS VL: DVVMTQSPLSLPVTLGQPASISCRSSQSLVYSDENTYLSWFQQRPGQSPRRLIYKISNRDSGVPDRFSGSGSGTDFTLKISRVEAEDVGVYYCMQGTHWPRTFGQGTEVEIK
2.3

Quick one: CL-444691 (antibody, V domains shown, peptides N-terminally acetylated and C-terminally amidated) VH: QVQLVESGGGVVQPGRSLRLSCAASGFTFSNYGMHWVRQAPGKGLEWVAVIWYDGSNKFYADSVKGRFTISRDNSKNTLYLQMNSLRAEDTAVYYCARDGGYNKNSGSYGWFDPWGQGTLVTVSS VL: DIQMTQSPSTLSASVGDRVTITCRASQSVSTWLAWYQQKPGKAPKLLIYKASSLESGVPSRFSGSGSGTEFTLTISSLQPDDFATYYCQQYNSYFTFGQGTRLEIK
2.3

Quick one: CL-512469 (antibody, V domains shown, peptides N-terminally acetylated and C-terminally amidated) VH: QMQLVESGGGVVQPGRSLTLSCEASGFTFSNYGMHWVRQAPGKGLEWVAIIWFDGSHRFYADAVEGRFTISRDNSKNTLFLQMTSLRAEDAAVYYCARVGQFSSSSWGAFDIWGQGTVVTVSS VL: EIVLTQSPGTLSLSPGESVTLSCRASQIISNTHLAWYQQKPGQAPSLLIYGASSRATGIPDRFSGSGSGTDFTLTISRLEPEDFAVYYCQQYGRLWTFGQGTKVEIK
1.99

Quick one: CL-444424 (antibody, V domains shown, peptides N-terminally acetylated and C-terminally amidated) VH: QVQLVESGGGVVQPGRSLRLSCTASGFTFSNYGMHWIRQAPGKGLEWVAIIWFDGSSQYYADSVKGRFTISRDNSKNTLYLQMNSLRAEDTAVYYCVRALYDSGSLFDFWGLGTLVTVSS VL: DIQMTQSPSTLSASVGDRVTITCRASQNISSLLAWYQQKPGKAPKLLIYKASSLESGVPSRFSGNGSGTEFTLTVSSLQPDDFATYSCLQYNNYWTFGQGTKVEIK
2.3

Quick one: CL-532061 (antibody, V domains shown, peptides N-terminally acetylated and C-terminally amidated) VH: QVQLVESGGGVVQPGRSLRLSCVASRFTFSNYGMHWVRQTPGKGLEWVAIIWYDGSNKFYGDSVKGRFTISRDNSRNTLYLQMNNLRAEDTAVYYCARAYDDFVDHDKYGMDVWGQGTTVTVSS VL: DIQMTQSPSTLSASVGDRVTISCRASQSISIWLAWYQQKSGKAPKLLIYKASRLESGVPSRFSGSGSGTEFTLTISSLQPDDFATYYCQQYNSYWTFGQGTKVEIK
2.47

Hello, the source for this data is paper PMC10720262, in case you need it.
